Recorded values, source the supplement of paper PMC6897291.

System: RIVA
Assay: growth inhibition by drug alone (1 - RLU/untreated control) (fraction); higher = stronger inhibition
Details: 100 nM; time (day): 4; 177Lu-lilotomab satetraxetan 0 ug/ml
Cut-off -0.09 on growth inhibition by drug alone, inclusive. At or above means TRUE; below means FALSE.

[[record]]
compound = "O=C(O)C(=O)O.[NH-]C1CCCCC1[NH-].[Pt+2] (stereo not drawn) [Oxaliplatin (Eloxatin)]"
group = "TRUE"

[[record]]
compound = "COc1cc2ncnc(Nc3cccc(Br)c3)c2cc1OC"
group = "TRUE"

[[record]]
compound = "CC[C@@H]1C(=O)N(C)c2cnc(Nc3ccc(C(=O)N[C@H]4CC[C@H](N5CCN(CC6CC6)CC5)CC4)cc3OC)nc2N1C(C)C"
group = "TRUE"

[[record]]
compound = "COc1cc2c(cc1OC)CN(CCc1ccc(NC(=O)c3cccc4c(=O)c5cccc(OC)c5[nH]c34)cc1)CC2"
group = "FALSE"

[[record]]
compound = "CN1CCN(c2nc(C3=C(c4c[nH]c5ccccc45)C(=O)NC3=O)c3ccccc3n2)CC1"
group = "TRUE"

[[record]]
compound = "COc1cc(Nc2ncc(F)c(Nc3ccc4c(n3)NC(=O)C(C)(C)O4)n2)cc(OC)c1OC [R406(free base)]"
group = "FALSE"

[[record]]
compound = "CC1(C)CCC(c2ccc(Cl)cc2)=C(CN2CCN(c3ccc(C(=O)NS(=O)(=O)c4ccc(N[C@H](CCN5CCOCC5)CSc5ccccc5)c(S(=O)(=O)C(F)(F)F)c4)cc3)CC2)C1"
group = "TRUE"

[[record]]
compound = "CCOc1ccc(Nc2nc(-c3c(C)nc4ccccn34)cs2)cc1"
group = "TRUE"

